I'd be grateful if you could share measured binding signal for these entries.
Molecular target: SIX1 homeodomain (reference allele) (human, UniProt Q15475 108-198)
Sequence: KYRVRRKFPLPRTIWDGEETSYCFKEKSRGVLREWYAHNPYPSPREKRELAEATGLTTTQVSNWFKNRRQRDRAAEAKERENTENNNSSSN
Test: universal protein binding microarray; Universal all-10-mer PBM (8x60K, AMADID 030236), 300 nM GST-tagged protein, Alexa Fluor 488 anti-GST; buffer, salt, pH and temperature not stated (as in Berger); high values mean tight binding
Conditions: protein: ivt; tags: N-terminal GST; dsDNA, one strand shown
Over roughly 33,000 sequences, “e-score” has its median near -0.053; the highest 2% begin near 0.38. This excerpt belongs to a sample that is enriched for the highest values.
Dear colleague, please return just the value in E-score, with no unit written.

# get_value(readout='binding signal', item= CTACAGTA )
0.152

Any idea what binding signal was measured for ATCGGGTG ?
0.32

Consider the sequence shown here: ACTCGGAT What is its recorded binding signal?
0.38

Look up binding signal: CGATCCGC
0.418

Look up binding signal: CGATCCTC
0.333

# binding signal lookup, item GGAACACC
0.187

What does the data say about its binding signal? Entry: AGGCGGAT
0.346

Quick check: binding signal of ATCCCTCG ?
0.337

I'd like to know its binding signal. The sequence in question is AATCGGAT
0.253

// lookup binding signal for CGATCATA
0.276

What measured binding signal goes with ACTACTCG ?
0.163

Quick check: binding signal of AGACGGCA ?
0.197

Requested read-out: binding signal. Entry: ATACGTAC
0.336
